Assay read-out IC50; system under study: PAK2 (PAK65) (Homo sapiens, UniProt Q13177).
Sequence (Q13177 whole entry): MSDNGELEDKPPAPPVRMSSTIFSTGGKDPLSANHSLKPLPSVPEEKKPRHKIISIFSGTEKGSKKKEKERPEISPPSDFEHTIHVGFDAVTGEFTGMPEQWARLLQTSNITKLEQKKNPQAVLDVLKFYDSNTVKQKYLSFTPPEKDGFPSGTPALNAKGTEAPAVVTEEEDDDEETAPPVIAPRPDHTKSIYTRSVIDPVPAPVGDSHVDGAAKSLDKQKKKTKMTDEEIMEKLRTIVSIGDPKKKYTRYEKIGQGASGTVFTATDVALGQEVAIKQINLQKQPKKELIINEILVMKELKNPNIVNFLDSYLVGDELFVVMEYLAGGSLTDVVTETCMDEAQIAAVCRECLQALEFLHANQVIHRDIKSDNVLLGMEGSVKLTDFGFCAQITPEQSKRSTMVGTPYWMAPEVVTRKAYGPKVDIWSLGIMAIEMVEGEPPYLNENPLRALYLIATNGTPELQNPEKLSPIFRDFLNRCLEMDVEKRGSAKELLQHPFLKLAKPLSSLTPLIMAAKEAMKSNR

Recorded IC50, per entry:
[
  {
    "compound": "CCn1c(=O)c(-c2ccc(C3CC3)s2)cc2cnc(Nc3ccc(N4CCN(C)CC4)cc3)nc21",
    "test.value": "> 5 µM"
  },
  {
    "compound": "CCn1c(=O)c(-c2ccc(-c3cnc(C)o3)cc2Cl)cc2cnc(Nc3ccc(C4CCN(C)CC4)cc3)nc21",
    "test.value": "0.05 to 0.5 µM"
  },
  {
    "compound": "CCOC(=O)c1cncnc1-c1ccc(-c2cc3cnc(Nc4ccc(C5CCN(C)CC5)cc4)nc3n(CC)c2=O)c(Cl)c1",
    "test.value": "0.5 to 5 µM"
  },
  {
    "compound": "CCN1CCC(c2ccc(Nc3ncc4cc(-c5ccc(-c6ccnc(C(=O)NC)c6)cc5Cl)c(=O)n(CC)c4n3)cc2)CC1",
    "test.value": "0.05 to 0.5 µM"
  },
  {
    "compound": "CCn1c(=O)c(-c2ccc(-c3cnc(C)s3)cc2Cl)cc2cnc(Nc3ccc(C4CCN5CCCC5C4)cc3)nc21 (stereo not shown)",
    "test.value": "< 0.05 µM"
  },
  {
    "compound": "CCn1c(=O)c(-c2ccc(-c3cccnc3)cc2Cl)cc2cnc(Nc3ccc(CN(C)C)cc3)nc21",
    "test.value": "< 0.05 µM"
  },
  {
    "compound": "CCn1c(=O)c(-c2ccc(-c3cccc4[nH]ccc34)cc2Cl)cc2cnc(Nc3ccc(N4CCN(C)CC4)cc3)nc21",
    "test.value": "0.05 to 0.5 µM"
  },
  {
    "compound": "CCn1c(=O)c(-c2ccc(-c3ccc(C)nc3F)cc2Cl)cc2cnc(Nc3ccc(C4CCNCC4)cc3)nc21",
    "test.value": "< 0.05 µM"
  },
  {
    "compound": "CCn1c(=O)c(-c2ccc(-c3cccnc3)cc2Cl)cc2cnc(Nc3ccc(C4CCN(C)CC4)cc3)nc21",
    "test.value": "< 0.05 µM"
  },
  {
    "compound": "CCn1c(=O)c(-c2ccc(-c3cccnc3)cc2Cl)cc2cnc(Nc3ccc(N4CCNCC4)cc3)nc21",
    "test.value": "< 0.05 µM"
  }
]

Turning now to a further compound:
The reported IC50 of the compound CCn1c(=O)c(-c2ccc(-c3ccc(C)nc3)cc2Cl)cc2cnc(Nc3ccc(C4CCNCC4)c(F)c3)nc21 was < 0.05 µM

----------
target: PAK4 (Homo sapiens, UniProt O96013)
Sequence (O96013 whole entry): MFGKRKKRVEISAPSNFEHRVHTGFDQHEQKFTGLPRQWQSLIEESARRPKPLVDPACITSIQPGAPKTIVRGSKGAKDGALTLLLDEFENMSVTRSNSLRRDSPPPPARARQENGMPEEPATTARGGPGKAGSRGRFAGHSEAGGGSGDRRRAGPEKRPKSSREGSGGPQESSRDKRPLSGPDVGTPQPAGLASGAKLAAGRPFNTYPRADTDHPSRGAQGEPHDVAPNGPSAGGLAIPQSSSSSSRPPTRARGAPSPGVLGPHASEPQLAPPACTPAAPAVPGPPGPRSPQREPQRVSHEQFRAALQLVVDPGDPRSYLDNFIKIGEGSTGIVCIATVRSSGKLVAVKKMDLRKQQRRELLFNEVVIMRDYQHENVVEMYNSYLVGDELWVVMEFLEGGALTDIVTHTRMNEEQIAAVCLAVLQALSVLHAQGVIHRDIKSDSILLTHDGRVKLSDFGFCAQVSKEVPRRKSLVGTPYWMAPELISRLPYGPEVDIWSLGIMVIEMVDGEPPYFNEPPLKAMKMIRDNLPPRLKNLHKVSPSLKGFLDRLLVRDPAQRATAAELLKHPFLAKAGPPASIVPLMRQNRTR
measurement.kind: IC50

Recorded IC50, per entry:
[
  {
    "test.smiles": "CCn1c(=O)c(-c2ccc(-c3cccnc3F)cc2Cl)cc2cnc(Nc3ccc(CCN4CCOCC4)cc3)nc21",
    "IC50": "≥ 5 µM"
  },
  {
    "test.smiles": "CCN(CC)CCc1ccc(Nc2ncc3cc(-c4ccc(-c5cccnc5F)cc4Cl)c(=O)n(CC)c3n2)cc1",
    "IC50": "0.05 to 0.5 µM"
  },
  {
    "test.smiles": "CCN(CC)CCc1ccc(Nc2ncc3cc(-c4ccc(-c5cccnc5C)cc4Cl)c(=O)n(CC)c3n2)cc1",
    "IC50": "≥ 5 µM"
  },
  {
    "test.smiles": "CCn1c(=O)c(-c2ccc(-c3cncs3)cc2Cl)cc2cnc(Nc3ccc(N4CCN(C(C)C)CC4)c(F)c3)nc21",
    "IC50": "≥ 5 µM"
  },
  {
    "test.smiles": "CCn1c(=O)c(-c2ccc(-c3noc(C)n3)cc2Cl)cc2cnc(Nc3ccc(C4=CCNCC4)cc3)nc21",
    "IC50": "0.5 to 5 µM"
  },
  {
    "test.smiles": "CCn1c(=O)c(-c2ccc(-c3cccnc3C)cc2Cl)cc2cnc(Nc3ccc(C4CCN(C)CC4)c(F)c3)nc21",
    "IC50": "≥ 5 µM"
  }
]

The reported IC50 of the compound CCn1c(=O)c(-c2ccc(-c3noc(C)n3)cc2)cc2cnc(Nc3ccc(C4CCN(C)CC4)cc3)nc21 was ≥ 5 µM

The reported IC50 of the compound CCn1c(=O)c(-c2ccc(-c3ccncc3)cc2Cl)cc2cnc(Nc3ccc(N4CCN(C)CC4)cc3)nc21 was ≥ 5 µM
